Listed here are compounds together with their documented IC50.
target: DRB1*0101 (Homo sapiens, UniProt P01903+P01911, A100R/D57E/F55L/F60I/F76Y/I96L/L162R/M171V/P40L/Q125E/R42F/V115G/Y59C); construct: made in house; host or cells: EBV-transformed homozygous human B cell lines, transfected fibroblasts or single-allele 721.221 transfectants; experiment: biochemical; format: binding; details: IC50 nM to purified HLA DRB1*0101
Could you give me the number in nM? Just the number is fine.

Dear colleague, I am looking for the recorded IC50 of the following compound: CC[C@H](C)[C@H](NC(=O)[C@H](CC(C)C)NC(=O)[C@H](CS)NC(=O)[C@H](CCC(=O)O)NC(=O)[C@@H](N)CCC(=O)O)C(=O)N[C@@H](CC(N)=O)C(=O)N[C@@H](CC(=O)O)C(=O)N1CCC[C@H]1C(=O)N[C@@H](Cc1c[nH]c2ccccc12)C(=O)N[C@H](C(=O)N[C@@H](CC(C)C)C(=O)N[C@@H](CC(C)C)C(=O)N[C@@H](CC(N)=O)C(=O)N[C@@H](C)C(=O)N[C@@H](CO)C(=O)O)C(C)C 34

Dear colleague, I am looking for the recorded IC50 of the following compound: CC(C)C[C@H](NC(=O)[C@H](CO)NC(=O)[C@H](CCCNC(=N)N)NC(=O)[C@H](CC(C)C)NC(=O)[C@H](CCC(=O)O)NC(=O)[C@@H]1CCCN1C(=O)[C@H](CCC(=O)O)NC(=O)[C@H](CC(=O)O)NC(=O)[C@H](CO)NC(=O)[C@H](CC(=O)O)NC(=O)[C@H](Cc1ccc(O)cc1)NC(=O)[C@H](CCC(N)=O)NC(=O)[C@H](CCCCN)NC(=O)[C@@H](N)CC(C)C)C(=O)N[C@@H](CO)C(=O)O 17700

Dear colleague, I am looking for the recorded IC50 of the following compound: CC[C@H](C)[C@H](NC(=O)[C@H](CCCCN)NC(=O)[C@@H](N)Cc1c[nH]cn1)C(=O)N[C@@H](Cc1ccccc1)C(=O)N[C@@H](CCCCN)C(=O)N[C@@H](CCSC)C(=O)N[C@@H](CCC(=O)O)C(=O)N[C@@H](CCCCN)C(=O)NCC(=O)N[C@@H](CCCCN)C(=O)N[C@H](C(=O)N[C@H](C(=O)N[C@@H](CCCCN)C(=O)N[C@@H](CO)C(=O)N[C@H](C(=O)N[C@@H](CCC(=O)O)C(=O)N[C@@H](CC(C)C)C(=O)O)C(C)C)C(C)C)C(C)C 64

====

Listed here are compounds together with their documented IC50.
biological target: DRB1*0401 (Homo sapiens, UniProt P01903+P01911, A100K/A169T/F76Y/I96L/K127E/L162R/M171V/N62H/P40V/Q125Y/R42H/S133A/S149N/S66Y/V115G/V209L/W38E); construct: made in house; host or cells: EBV-transformed homozygous human B cell lines, transfected fibroblasts or single-allele 721.221 transfectants; assay: biochemical; format: binding; conditions: read-out: IC50 nM to purified HLA DRB1*0401
Could you give me the number in nM? Just the number is fine.

>  <Compound>
CC(C)[C@H](NC(=O)[C@H](CCC(=O)O)NC(=O)[C@H](C)NC(=O)[C@@H](NC(=O)[C@H](Cc1ccccc1)NC(=O)[C@H](Cc1ccc(O)cc1)NC(=O)[C@H](CC(N)=O)NC(=O)[C@@H](N)CCCNC(=N)N)[C@@H](C)O)C(=O)N[C@@H](CO)C(=O)N[C@@H](Cc1c[nH]cn1)C(=O)N[C@@H](CS)C(=O)N[C@@H](CCCNC(=N)N)C(=O)N[C@@H](C)C(=O)N[C@H](C(=O)N[C@@H](CCC(=O)O)C(=O)O)[C@@H](C)O [Flu.PA.446]

>  <Metric>
IC50

>  <U>
nM

>  <Recorded Value>
45

$$$$

Dear colleague, I am looking for the recorded IC50 of the following compound: CC[C@H](C)[C@H](NC(=O)[C@H](CCSC)NC(=O)[C@H](CC(N)=O)NC(=O)[C@@H](N)CC(N)=O)C(=O)N[C@@H](CC(N)=O)C(=O)N[C@@H](CC(N)=O)C(=O)N[C@@H](CC(=O)O)C(=O)N[C@@H](CC(C)C)C(=O)NCC(=O)N1CCC[C@H]1C(=O)N[C@@H](C)C(=O)N[C@H](C(=O)N[C@@H](C)C(=O)N[C@@H](CCC(N)=O)C(=O)N[C@@H](CCSC)C(=O)O)[C@@H](C)O [Flu.PB1.535] 798

Dear colleague, I am looking for the recorded IC50 of the following compound: CC[C@H](C)[C@H](NC(=O)[C@@H](N)Cc1ccc(O)cc1)C(=O)N[C@@H](CCC(N)=O)C(=O)N[C@@H](CCSC)C(=O)N[C@@H](CS)C(=O)N[C@H](C(=O)N[C@@H](CCC(=O)O)C(=O)N[C@@H](CC(C)C)C(=O)N[C@@H](CCCCN)C(=O)N[C@@H](CC(C)C)C(=O)N[C@@H](CO)C(=O)N[C@@H](CC(=O)O)C(=O)N[C@@H](Cc1ccc(O)cc1)C(=O)N[C@@H](CCC(=O)O)C(=O)NCC(=O)O)[C@@H](C)O [Flu.NP.43] 392

====

Listed here are compounds together with their documented IC50.
biological target: DRB1*0802 (Homo sapiens, UniProt P01903+P01911, A100R/A103L/A169T/F76Y/H45Y/I96F/K41T/L162R/M171V/P40S/Q125H/Q178H/Q39Y/Q99D/R218S/R42G/S66Y/V115G/W38E); assay: biochemical; type: binding
Could you give me the number in nM? Just the number is fine.

>  <Smiles Notation>
CC[C@H](C)[C@H](NC(=O)[C@@H](NC(=O)[C@H](CCCNC(=N)N)NC(=O)[C@H](CCC(N)=O)NC(=O)[C@@H](NC(=O)[C@@H](NC(=O)[C@H](CCSC)NC(=O)[C@H](CCCCN)NC(=O)[C@H](CCCCN)NC(=O)[C@@H](N)[C@@H](C)O)C(C)C)[C@@H](C)O)[C@@H](C)O)C(=O)NCC(=O)N[C@@H](CCCCN)C(=O)N[C@@H](CCCCN)C(=O)N[C@@H](CCCCN)C(=O)N[C@@H](CCC(N)=O)C(=O)O

>  <Metric>
IC50

>  <Recorded Value>
55

$$$$

Now look at this entry.
Dear colleague, I am looking for the recorded IC50 of the following compound: CC[C@H](C)[C@H](NC(=O)[C@H](CCC(N)=O)NC(=O)[C@H](CC(C)C)NC(=O)[C@H](CCSC)NC(=O)[C@H](CC(C)C)NC(=O)[C@@H](N)CO)C(=O)NCC(=O)N[C@@H](CC(N)=O)C(=O)N[C@@H](CCSC)C(=O)N[C@H](C(=O)N[C@@H](CO)C(=O)N[C@H](C(=O)N[C@@H](Cc1c[nH]c2ccccc12)C(=O)N[C@H](C(=O)N[C@@H](CO)C(=O)N[C@@H](Cc1c[nH]cn1)C(=O)N[C@@H](CO)C(=O)O)C(C)C)[C@@H](C)CC)[C@@H](C)CC 89

====

target: DRB1*1101 (Homo sapiens, UniProt P01903+P01911, A100R/A169T/A87E/I96F/K41T/L162R/M171V/P40S/Q125H/Q178H/Q39Y/Q99D/R42S/S66Y/T262R/V115G/W38E); experiment: biochemical; type: binding; conditions: read-out: IC50 nM to purified HLA DRB1*1101
Sequence (P01903 26-254 limits assumed, other chains not shown): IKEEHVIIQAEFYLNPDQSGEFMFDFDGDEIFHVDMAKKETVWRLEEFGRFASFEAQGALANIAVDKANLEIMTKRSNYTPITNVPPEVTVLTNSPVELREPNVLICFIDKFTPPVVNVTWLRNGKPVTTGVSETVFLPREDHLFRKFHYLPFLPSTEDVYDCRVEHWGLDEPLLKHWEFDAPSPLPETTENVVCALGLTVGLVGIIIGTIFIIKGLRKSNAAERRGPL
Metric: IC50 (nM)
Could you give me the number in nM? Just the number is fine.

Dear colleague, I am looking for the recorded IC50 of the following molecule: CC[C@H](C)[C@H](NC(=O)[C@H](CCCCN)NC(=O)[C@H](CC(N)=O)NC(=O)[C@H](C)NC(=O)[C@H](CCCCN)NC(=O)[C@H](CCC(=O)O)NC(=O)[C@H](CC(C)C)NC(=O)[C@H](Cc1ccc(O)cc1)NC(=O)[C@H](Cc1ccc(O)cc1)NC(=O)[C@@H](NC(=O)[C@H](Cc1c[nH]cn1)NC(=O)[C@@H](NC(=O)[C@H](CCC(=O)O)NC(=O)[C@H](CCCNC(=N)N)NC(=O)[C@@H](N)CCCNC(=N)N)C(C)C)[C@@H](C)CC)C(=O)O 96

====

Listed here are molecules together with their documented IC50.
molecular target: DRB1*1302 (Homo sapiens, UniProt P01903+P01911, A100E/A169T/K41T/L162R/M171V/P40S/Q125H/Q178H/Q39Y/Q99D/R42S/S66N/T262R/V115G/W38E/Y61H); experiment: biochemical; assay type: binding; settings: read-out: IC50 nM to purified HLA DRB1*1302
Sequence (P01903 26-254 limits assumed, other chains not shown): as above
Could you give me the number in nM? Just the number is fine.

Some molecules with recorded IC50:
>  <Smiles Notation>
CC[C@H](C)[C@H](NC(=O)[C@H](CO)NC(=O)[C@H](CCC(N)=O)NC(=O)[C@H](CCC(=O)O)NC(=O)[C@H](CC(=O)O)NC(=O)[C@H](CCCNC(=N)N)NC(=O)CNC(=O)[C@H](CO)NC(=O)[C@@H](NC(=O)[C@@H](NC(=O)[C@H](CC(C)C)NC(=O)[C@H](CCC(N)=O)NC(=O)[C@@H](NC(=O)[C@@H](N)CC(C)C)[C@@H](C)CC)[C@@H](C)CC)C(C)C)C(=O)N[C@@H](C)C(=O)O

>  <Metric>
IC50

>  <U>
nM

>  <Recorded Value>
4680

$$$$
>  <Smiles Notation>
CC[C@H](C)[C@H](NC(=O)[C@H](CO)NC(=O)[C@H](CCC(=O)O)NC(=O)CN)C(=O)N[C@H](C(=O)N[C@H](C(=O)N[C@@H](CCC(=O)O)C(=O)N[C@@H](CC(C)C)C(=O)N[C@@H](CC(=O)O)C(=O)N[C@@H](CC(=O)O)C(=O)N1CCC[C@H]1C(=O)N[C@@H](CC(N)=O)C(=O)N[C@@H](C)C(=O)N[C@@H](CC(C)C)C(=O)N[C@@H](CC(C)C)C(=O)O)C(C)C)[C@@H](C)CC

>  <Metric>
IC50

>  <U>
nM

>  <Recorded Value>
59

$$$$
>  <Smiles Notation>
CC[C@H](C)[C@H](N)C(=O)N[C@@H](Cc1ccc(O)cc1)C(=O)N[C@@H](CCC(N)=O)C(=O)N[C@H](C(=O)N[C@@H](CC(C)C)C(=O)N[C@@H](CO)C(=O)N[C@H](C(=O)N[C@@H](Cc1ccc(O)cc1)C(=O)N[C@@H](CO)C(=O)N[C@H](C(=O)N[C@H](C(=O)N[C@@H](C)C(=O)N[C@@H](CO)C(=O)N[C@@H](CO)C(=O)N[C@@H](CC(C)C)C(=O)N[C@@H](C)C(=O)O)C(C)C)[C@@H](C)O)[C@@H](C)CC)[C@@H](C)CC

>  <Metric>
IC50

>  <U>
nM

>  <Recorded Value>
13

$$$$

Dear colleague, I am looking for the recorded IC50 of the following molecule: CC(C)C[C@H](NC(=O)CNC(=O)[C@@H](NC(=O)[C@H](C)NC(=O)[C@H](CC(C)C)NC(=O)[C@@H](NC(=O)[C@H](CC(C)C)NC(=O)[C@H](CCCNC(=N)N)NC(=O)[C@H](CC(N)=O)NC(=O)[C@H](CO)NC(=O)[C@H](CCCCN)NC(=O)[C@@H](NC(=O)[C@H](Cc1ccc(O)cc1)NC(=O)[C@H](CCCCN)NC(=O)[C@@H]1CCCN1C(=O)[C@@H](N)CS)C(C)C)C(C)C)[C@@H](C)O)C(=O)O 48
